Test system: tetracycline regulatable 32D-P210 cell line
Test: MTT assay of cell growth, 3 day exposure to emodin
Assay type: cell-based
Conditions: emodin solubilized in DMSO, MTT assay at 72 hours, read-out: IC 50, inhibition of cellular growth
pIC50: −log10 of the molar value.
ASSAY METRIC: pIC50

Request: Can you look up the measured pIC50 of `Cc1cc(O)c2c(c1)C(=O)c1cc(O)cc(O)c1C2=O` for me?
Response: ~5.00
